- Test system: biotinyl-Trp-oxazolone
- Protocol: self-aminoacylation, catalytic enhancement (BWO) (fold over background); higher = more active; k-Seq, kA / k0A0; sequences stand for … in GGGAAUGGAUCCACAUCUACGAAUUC…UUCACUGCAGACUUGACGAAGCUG
Variants at the floor of the assay were thinned out.
Parameter Measured: self-aminoacylation
Answers are plain numbers.

The cases that follow already have their self-aminoacylation on record.
Sequence: CUGACCCUGGUCAUCGAGUGA [Fam2.1 aminoacylation ribozyme variant]
Assay System: biotinyl-Trp-oxazolone
self-aminoacylation: 8.61
--
Sequence: AUUCCCCUAGGUCAUCGGUUG [Fam2.2 aminoacylation ribozyme variant]
Assay System: biotinyl-Trp-oxazolone
self-aminoacylation: 2.16
--
Sequence: CUACUUCAAACAAUCGGUCGC [Fam1A.1 aminoacylation ribozyme variant]
Assay System: biotinyl-Trp-oxazolone
self-aminoacylation: 26.2
--
Sequence: CUACACUUUAAGCAAUCGGUC [Fam1B.1 aminoacylation ribozyme variant]
Assay System: biotinyl-Trp-oxazolone
self-aminoacylation: 0.565
--
Sequence: CUUCACCUAGGUCAUCGGGUU [Fam2.2 aminoacylation ribozyme variant]
Assay System: biotinyl-Trp-oxazolone
self-aminoacylation: 5.02
--
Sequence: AUUCACCUAGGUCAACGGGUC [Fam2.2 aminoacylation ribozyme variant]
Assay System: biotinyl-Trp-oxazolone
self-aminoacylation: 0.902
--
Sequence: AUUCACGUAGGUCAUGGGGUG [Fam2.2 aminoacylation ribozyme variant]
Assay System: biotinyl-Trp-oxazolone
self-aminoacylation: 4.5
--
Sequence: AUACUUCAAACAAUCGGUCUG [Fam1A.1 aminoacylation ribozyme variant]
Assay System: biotinyl-Trp-oxazolone
self-aminoacylation: 9.11
--
Sequence: AGUACCCUUGUCAUCGAGUGA [Fam2.1 aminoacylation ribozyme variant]
Assay System: biotinyl-Trp-oxazolone
self-aminoacylation: 6.7
--
Sequence: AUGCCCCUAGGUCAUCGGGUG [Fam2.2 aminoacylation ribozyme variant]
Assay System: biotinyl-Trp-oxazolone
self-aminoacylation: 7.6

Dear colleague, could you send me self-aminoacylation for each of the items below? Thanks.
1. AUUCACCACGGUCAUCGGGUG [Fam2.2 aminoacylation ribozyme variant]
2. UUGCUUCAAACAAUCGGUCUG [Fam1A.1 aminoacylation ribozyme variant]
3. CCACACUUCAACCAAUCGUUC [Fam1B.1 aminoacylation ribozyme variant]
4. CCACACUUCAAGCAAUCGGUU [Fam1B.1 aminoacylation ribozyme variant]

1. 10
2. 53.4
3. 0.778
4. 7.61

Which measured self-aminoacylation value corresponds to AAGUUUGCAAAGAGUCGCAAG [Fam3.1 aminoacylation ribozyme variant] ? 1.54

====

- System: biotinyl-Trp-oxazolone
- Protocol: self-aminoacylation, catalytic enhancement (BWO) (fold over background); higher = more active; k-Seq, kA / k0A0; sequences stand for … in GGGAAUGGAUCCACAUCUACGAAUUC…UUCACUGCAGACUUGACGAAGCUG
Variants at the floor of the assay were thinned out.
Returns Satisfied if the recorded self-aminoacylation is greater than or equal to 4, and Not satisfied otherwise.

Past entries and their recorded results:
Sequence: GAUACCCUGGUCAUCGAGUGA [Fam2.1 aminoacylation ribozyme variant]
Discrete Label: Satisfied
//
Sequence: ACUACCCUGGACAUCGAGUGA [Fam2.1 aminoacylation ribozyme variant]
Discrete Label: Satisfied
//
Sequence: CCAAGCUUCAAGCAAUCGGUC [Fam1B.1 aminoacylation ribozyme variant]
Discrete Label: Satisfied
//
Sequence: AUUUCGCUGGUCAUCGAGUGA [Fam2.1 aminoacylation ribozyme variant]
Discrete Label: Satisfied
//
Sequence: AUUCACCUCGGUCAUCAGGUG [Fam2.2 aminoacylation ribozyme variant]
Discrete Label: Not satisfied

Decide: is the reported value of self-aminoacylation for CCACAUUUCAAGUAAUCGGUC [Fam1B.1 aminoacylation ribozyme variant] equal to or greater than 4? Not satisfied

Decide: is the reported value of self-aminoacylation for ACUCACCUAGGUCAUCGCGUG [Fam2.2 aminoacylation ribozyme variant] equal to or greater than 4? Satisfied

Decide: is the reported value of self-aminoacylation for AGCCACCUAGGUCAUCGGGUG [Fam2.2 aminoacylation ribozyme variant] equal to or greater than 4? Satisfied

Decide: is the reported value of self-aminoacylation for AUUAUCCGGGUCAUCGAGUGA [Fam2.1 aminoacylation ribozyme variant] equal to or greater than 4? Satisfied

Decide: is the reported value of self-aminoacylation for CCACAUUUCAAGCAAUCGGCC [Fam1B.1 aminoacylation ribozyme variant] equal to or greater than 4? Satisfied

Decide: is the reported value of self-aminoacylation for CCACACUUCAAGCAAUCGCCC [Fam1B.1 aminoacylation ribozyme variant] equal to or greater than 4? Not satisfied

Decide: is the reported value of self-aminoacylation for AUGACCCUGGUCAUCGAGAGA [Fam2.1 aminoacylation ribozyme variant] equal to or greater than 4? Not satisfied

Decide: is the reported value of self-aminoacylation for CCUCACUUCAAUCAAUCGGUC [Fam1B.1 aminoacylation ribozyme variant] equal to or greater than 4? Satisfied

Decide: is the reported value of self-aminoacylation for AAGUUUGCUAAUAGUUGUAAG [Fam3.1 aminoacylation ribozyme variant] equal to or greater than 4? Not satisfied

Decide: is the reported value of self-aminoacylation for AAUCACCUAGGUCAUUGGGUG [Fam2.2 aminoacylation ribozyme variant] equal to or greater than 4? Satisfied

Decide: is the reported value of self-aminoacylation for CUUACCCUGGUCAUCCAGUGA [Fam2.1 aminoacylation ribozyme variant] equal to or greater than 4? Satisfied
